Molecular target: human cathepsin K (UniProt P43236)
Assay: Cathepsin K Assay (hrbCat K)
Format: biochemical
Conditions: human cathepsin K 0.4 nM, Z-Leu-Arg-AMC 8 μM, pH 5.5, 15 min preincubation; read-out: hrbCat K IP
Exercise: state measured pIC50 for each of the molecules provided.
Answers are plain numbers, as −log10 of the molar value.

CC(C)(O)C(C#N)NC(=O)[C@@H]1CCCC[C@H]1c1oc(-c2ccc(F)cc2)nc1-c1ccc(N2CCS(=O)(=O)CC2)cc1 (single isomer, unassigned) : 5.01
N#CCNC(=O)[C@@H]1CCCC[C@H]1c1oc(-c2ccc(F)cc2F)nc1-c1ccc(N2CCS(=O)(=O)CC2)cc1 : 9.17
N#CC1(NC(=O)[C@@H]2CCCC[C@H]2c2oc(-c3ccc(C(F)(F)F)nc3)nc2-c2ccc(N3CCS(=O)(=O)CC3)cc2)CC1 : 8.85
N#CC1(NC(=O)[C@@H]2CCCC[C@H]2c2oc(-c3cncnc3)nc2-c2ccc(N3CCS(=O)(=O)CC3)cc2)CC1 : 8.95

Dear colleague, could you send me pIC50 for each of the items below? Thanks.
1. N#CCNC(=O)[C@@H]1CCCC[C@H]1c1oc(-c2ccc(F)cc2)nc1-c1ccc(N2CCS(=O)(=O)CC2)cc1
2. N#CC1(NC(=O)[C@@H]2CCCC[C@H]2c2oc(C3CCC(F)(F)C3)nc2-c2ccc(N3CCS(=O)(=O)CC3)cc2)CC1 (mixture of isomers)

Result:
1. 9.14
2. 8.77
